- System: T-47D spheroids with HUVEC/MSC, viability
- assay: Anticancer human tumor T-47D cell line growth inhibition [PI3K];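 also: spheroids exposed to agents for seven days before reading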
- conditions.used: curve of first compound; second compound 10 µM
measurement.type: IC50

Data request: Find the recorded IC50 belonging to Cn1ncnc1[C@H]1c2n[nH]c(=O)c3cc(F)cc(c23)N[C@@H]1c1ccc(F)cc1 + Cc1nc(NC(=O)N2CCCC2C(N)=O)sc1-c1ccnc(C(C)(C)C(F)(F)F)c1 and report it.
Data returned: < 0.316 nM

Data request: Find the recorded IC50 belonging to Cn1ncnc1[C@H]1c2n[nH]c(=O)c3cc(F)cc(c23)N[C@@H]1c1ccc(F)cc1 + CC(Nc1ncnc2nc[nH]c12)c1cc2cccc(Cl)c2c(=O)n1-c1ccccc1 and report it.
Data returned: > 100 nM

Data request: Find the recorded IC50 belonging to CNC(=O)c1ccc(N2C(=S)N(c3ccc(C#N)c(C(F)(F)F)c3)C(=O)C2(C)C)cc1F + Cc1nc(NC(=O)N2CCCC2C(N)=O)sc1-c1ccnc(C(C)(C)C(F)(F)F)c1 and report it.
Data returned: < 31.6 nM

Data request: Find the recorded IC50 belonging to C#Cc1c(F)ccc2cc(O)cc(-c3ncc4c(N5CC6CCC(C5)N6)nc(OCC56CCCN5CC(F)C6)nc4c3F)c12 (centres undefined) + Cc1nc(NC(=O)N2CCCC2C(N)=O)sc1-c1ccnc(C(C)(C)C(F)(F)F)c1 and report it.
Data returned: < 31.6 nM

Data request: Find the recorded IC50 belonging to C#Cc1c(F)ccc2cc(O)cc(-c3ncc4c(N5CC6CCC(C5)N6)nc(OCC56CCCN5CC(F)C6)nc4c3F)c12 (centres undefined) + CC(Nc1ncnc2nc[nH]c12)c1cc2cccc(Cl)c2c(=O)n1-c1ccccc1 and report it.
Data returned: > 10000 nM

Data request: Find the recorded IC50 belonging to CC1(C)CCC(CN2CCN(c3ccc(C(=O)NS(=O)(=O)c4ccc(NCC5CCOCC5)c([N+](=O)[O-])c4)c(Oc4cnc5[nH]ccc5c4)c3)CC2)=C(c2ccc(Cl)cc2)C1 + CC(Nc1ncnc2nc[nH]c12)c1cc2cccc(Cl)c2c(=O)n1-c1ccccc1 and report it.
Data returned: > 10000 nM

Data request: Find the recorded IC50 belonging to CC(C)NCC(C(=O)N1CCN(c2ncnc3c2C(C)CC3O)CC1)c1ccc(Cl)cc1 (centres undefined) + CC(Nc1ncnc2nc[nH]c12)c1cc2cccc(Cl)c2c(=O)n1-c1ccccc1 and report it.
Data returned: > 10000 nM

Data request: Find the recorded IC50 belonging to Cn1ncc(Cl)c1-c1cc(C(=O)NC(CN)Cc2cccc(F)c2)sc1Cl (centres undefined) + CC(Nc1ncnc2nc[nH]c12)c1cc2cccc(Cl)c2c(=O)n1-c1ccccc1 and report it.
Data returned: > 10000 nM

Data request: Find the recorded IC50 belonging to CC(=O)c1c(C)c2cnc(Nc3ccc(N4CCNCC4)cn3)nc2n(C2CCCC2)c1=O + Cc1nc(NC(=O)N2CCCC2C(N)=O)sc1-c1ccnc(C(C)(C)C(F)(F)F)c1 and report it.
Data returned: < 0.316 nM

Data request: Find the recorded IC50 belonging to CC(Cn1ccc(-c2ccc(C#N)c(Cl)c2)n1)NC(=O)c1cc(C(C)O)[nH]n1 (centres undefined) + Cc1nc(NC(=O)N2CCCC2C(N)=O)sc1-c1ccnc(C(C)(C)C(F)(F)F)c1 and report it.
Data returned: < 31.6 nM

Data request: Find the recorded IC50 belonging to C[C@@H](NC(=O)c1ncnc(N)c1Cl)c1ncc(C(=O)Nc2cc(C(F)(F)F)c(Cl)cn2)s1 + CC(Nc1ncnc2nc[nH]c12)c1cc2cccc(Cl)c2c(=O)n1-c1ccccc1 and report it.
Data returned: > 10000 nM

Data request: Find the recorded IC50 belonging to Cn1nccc1Nc1nccc(-c2ccn(C(CO)c3ccc(Cl)c(F)c3)c(=O)c2)n1 (centres undefined) + Cc1nc(NC(=O)N2CCCC2C(N)=O)sc1-c1ccnc(C(C)(C)C(F)(F)F)c1 and report it.
Data returned: < 31.6 nM

Data request: Find the recorded IC50 belonging to Cn1cnc2c(F)c(Nc3ccc(Br)cc3Cl)c(C(=O)NOCCO)cc21 + CC(Nc1ncnc2nc[nH]c12)c1cc2cccc(Cl)c2c(=O)n1-c1ccccc1 and report it.
Data returned: > 3000 nM

Data request: Find the recorded IC50 belonging to CCN1CCN(Cc2ccc(Nc3ncc(F)c(-c4cc(F)c5nc(C)n(C(C)C)c5c4)n3)nc2)CC1 + Cc1nc(NC(=O)N2CCCC2C(N)=O)sc1-c1ccnc(C(C)(C)C(F)(F)F)c1 and report it.
Data returned: < 3.16 nM

Data request: Find the recorded IC50 belonging to Cn1ncc(Cl)c1-c1cc(C(=O)NC(CN)Cc2cccc(F)c2)sc1Cl (centres undefined) + Cc1nc(NC(=O)N2CCCC2C(N)=O)sc1-c1ccnc(C(C)(C)C(F)(F)F)c1 and report it.
Data returned: < 31.6 nM

Data request: Find the recorded IC50 belonging to C=CC(=O)N1CCN(c2nc(=O)n(-c3c(C)ccnc3C(C)C)c3nc(-c4c(O)cccc4F)c(F)cc23)C(C)C1 (centres undefined) + CC(Nc1ncnc2nc[nH]c12)c1cc2cccc(Cl)c2c(=O)n1-c1ccccc1 and report it.
Data returned: > 10000 nM

Data request: Find the recorded IC50 belonging to CC(Cn1ccc(-c2ccc(C#N)c(Cl)c2)n1)NC(=O)c1cc(C(C)O)[nH]n1 (centres undefined) + CC(Nc1ncnc2nc[nH]c12)c1cc2cccc(Cl)c2c(=O)n1-c1ccccc1 and report it.
Data returned: > 10000 nM

Data request: Find the recorded IC50 belonging to CCN1CCN(Cc2ccc(Nc3ncc(F)c(-c4cc(F)c5nc(C)n(C(C)C)c5c4)n3)nc2)CC1 + CC(Nc1ncnc2nc[nH]c12)c1cc2cccc(Cl)c2c(=O)n1-c1ccccc1 and report it.
Data returned: > 1000 nM

Data request: Find the recorded IC50 belonging to CC1(C)CCC(CN2CCN(c3ccc(C(=O)NS(=O)(=O)c4ccc(NCC5CCOCC5)c([N+](=O)[O-])c4)c(Oc4cnc5[nH]ccc5c4)c3)CC2)=C(c2ccc(Cl)cc2)C1 + Cc1nc(NC(=O)N2CCCC2C(N)=O)sc1-c1ccnc(C(C)(C)C(F)(F)F)c1 and report it.
Data returned: < 31.6 nM
